Parameter MIC, tested on E. faecium A491(Amp^R), listed per item.
Counter-ions that a name gives are not always drawn.

Would you please look over these solved cases?
compound="Nc1nc(/C(=N/O)C(=O)N[C@@H]2C(=O)N3C(C(=O)O)=C(Sc4ccncc4CSC4CCNC4)CS[C@H]23)cs1 (stereo partly drawn) [Cmpd 17, trifluoroacetic acid salt]" reading="> 32 µg/mL"
compound="NCCSCc1cnccc1SC1=C(C(=O)O)N2C(=O)[C@@H](NC(=O)/C(=N\\O)c3csc(N)n3)[C@H]2SC1 [Cmpd 10, trifluoroacetic acid salt]" reading="> 32 µg/mL"

Switching to the query record.
Return MIC measured with E. faecium A491(Amp^R) given this compound: CNCCSCc1cnccc1SC1=C(C(=O)O)N2C(=O)[C@@H](NC(=O)/C(=N\O)c3csc(N)n3)[C@H]2SC1 [Cmpd 15, trifluoroacetic acid salt]
> 32 µg/mL
